For each entry below, report its Activity value.
target of assay: UniProt:P30542
Sequence (P30542 whole entry): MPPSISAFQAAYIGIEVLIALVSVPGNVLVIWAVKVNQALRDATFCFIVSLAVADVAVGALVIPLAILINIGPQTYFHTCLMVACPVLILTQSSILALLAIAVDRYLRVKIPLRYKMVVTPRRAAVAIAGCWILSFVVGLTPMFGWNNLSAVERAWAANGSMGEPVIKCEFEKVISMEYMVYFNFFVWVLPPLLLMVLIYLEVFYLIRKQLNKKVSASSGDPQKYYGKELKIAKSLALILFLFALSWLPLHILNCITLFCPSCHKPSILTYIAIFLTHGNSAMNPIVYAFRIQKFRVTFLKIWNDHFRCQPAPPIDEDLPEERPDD
experiment summary: Displacement of [3H]DPCPX from human cloned adenosine A1 receptor expressed in CHO cells at 10 uM
Format: cell-based
Provide the reading as a plain figure in %.

Please give the measured Activity for this compound: COc1ccc(-n2nc3c(NC(C)=O)nc4ncccc4n3c2=O)cc1 48

Please give the measured Activity for this compound: COc1ccc(-n2nc3c(NC(=O)c4ccccc4)nc4ncccc4n3c2=O)cc1 38

Please give the measured Activity for this compound: COc1ccc(-n2nc3c(N(C(=O)c4ccccc4)C(=O)c4ccccc4)nc4ncccc4n3c2=O)cc1 0

Please give the measured Activity for this compound: O=c1n(-c2ccccc2)nc2c(NC3CCCCC3)nc3ncccc3n12 37

Please give the measured Activity for this compound: O=C(Cc1ccccc1)Nc1nc2ncccc2n2c(=O)n(-c3ccccc3)nc12 37

Please give the measured Activity for this compound: O=c1n(-c2ccccc2)nc2c(NC3CCCC3)nc3ncccc3n12 36

Please give the measured Activity for this compound: O=C(Nc1nc2ncccc2n2c(=O)n(-c3ccccc3)nc12)c1ccccc1 8

* * *

target of assay: Adenosine receptor A3 (Homo sapiens, UniProt P0DMS8)
Sequence (P0DMS8 whole entry): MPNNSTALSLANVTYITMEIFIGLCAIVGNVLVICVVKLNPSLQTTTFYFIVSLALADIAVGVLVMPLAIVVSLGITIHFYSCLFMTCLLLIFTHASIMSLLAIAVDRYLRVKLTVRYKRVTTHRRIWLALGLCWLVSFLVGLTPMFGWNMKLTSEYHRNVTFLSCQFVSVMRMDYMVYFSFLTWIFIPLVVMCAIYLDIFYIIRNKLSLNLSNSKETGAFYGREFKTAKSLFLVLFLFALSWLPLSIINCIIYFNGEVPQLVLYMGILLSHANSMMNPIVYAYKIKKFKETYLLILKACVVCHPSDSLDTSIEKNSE
For each entry below, report its pKi value.
# log scale: pKi equals minus log10 of the concentration in mol/L

Please give the measured pKi for this compound: Nc1nc2ncccc2n2c(=O)n(-c3ccc(F)cc3)nc12 6.31

Please give the measured pKi for this compound: Nc1nc2ncccc2n2c(=O)n(-c3ccc(O)cc3)nc12 5.87

Please give the measured pKi for this compound: O=c1[nH]c2c([N+](=O)[O-])cccc2n2c(=O)n(-c3ccccc3)nc12 6.55

Please give the measured pKi for this compound: O=c1n(-c2ccccc2)nc2c(NC3CCCCC3)nc3c([N+](=O)[O-])cccc3n12 6.55

Please give the measured pKi for this compound: O=c1n(-c2ccccc2)nc2c(NC3CCCCC3)nc3ncccc3n12 7.81

Please give the measured pKi for this compound: O=C(c1ccccc1)N(C(=O)c1ccccc1)c1nc2ncccc2n2c(=O)n(-c3ccccc3)nc12 6.47

Please give the measured pKi for this compound: O=C(Nc1nc2ncccc2n2c(=O)n(-c3ccccc3)nc12)c1ccccc1 7.15

Please give the measured pKi for this compound: COc1ccc(-n2nc3c(N)nc4ncccc4n3c2=O)cc1 6.80

Please give the measured pKi for this compound: O=c1[nH]c2ncccc2n2c(=O)n(-c3ccccc3)nc12 6.60

Please give the measured pKi for this compound: Nc1nc2ncccc2n2c(=O)n(-c3ccccc3)nc12 6.18

Please give the measured pKi for this compound: COc1ccc(-n2nc3c(N(C(=O)c4ccccc4)C(=O)c4ccccc4)nc4ncccc4n3c2=O)cc1 8.11

Please give the measured pKi for this compound: O=c1[nH]c2ncccc2n2c(=O)n(-c3ccc(F)cc3)nc12 6.23
